Value source: paper PMC7006766

Consider molecules characterized by their pKi with UniProt:Q16790.
One number for each entry, as −log10 of the molar value.

Solved cases below.
Molecule	pKi
CC(C)=CCOc1c2occc2cc2ccc(=O)oc12 [Compound 6, imperatorin]	6.65
COc1c2ccoc2cc2oc(=O)ccc12 [Compound 1, begapten]	5.71
CC(=O)O[C@@H](COc1c2occc2cc2ccc(=O)oc12)C(C)(C)O [Compound 10, (+)-heraclenol acetate]	6.72
COc1c2occc2cc2ccc(=O)oc12 [Compound 2, xanthotoxin]	6.71

Please report pKi for every entry that follows.
1. COc1c2ccoc2c(OC)c2oc(=O)ccc12 [Compound 3, isopimpinellin]
2. CC(C)(O)[C@H](O)COc1c2occc2cc2ccc(=O)oc12 [Compound 9, (-)-heraclenol]
3. CC1(C)O[C@@H]1COc1c2occc2cc2ccc(=O)oc12 [Compound 8, heraclenin]

*A*
1. 6.80
2. 7.56
3. 6.79

###

biological target: UniProt O43570
For each entry below, report its pKi value.
One number for each entry, as −log10 of the molar value.

Compound	pKi
COc1c2ccoc2cc2oc(=O)ccc12	6.07
COc1c2ccoc2c(OC/C=C(\C)CO)c2oc(=O)ccc12	7.20
COc1ccc2ccc(=O)oc2c1C[C@H](OC(C)=O)C(C)(C)O [Compound 14, 2′-acetoxy-3′-hydroxy-osthol]	6.54

Please report pKi for every entry that follows.
1. CC(C)(O)[C@H](O)COc1c2occc2cc2ccc(=O)oc12 [Compound 9, (-)-heraclenol]
2. COc1ccc2ccc(=O)oc2c1CC=C(C)C

*A*
[6.09, 7.13]

Please report pKi for every entry that follows.
1. COc1c2ccoc2c(OC)c2oc(=O)ccc12
2. CC(C)=CCC/C(C)=C/CC/C(C)=C/COc1ccc2ccc(=O)oc2c1

*A*
1. 6.23
2. 8.24

###

For each entry below, report its pKi value.
biological target: hCA XII (Homo sapiens)
Sequence (O43570 25-354): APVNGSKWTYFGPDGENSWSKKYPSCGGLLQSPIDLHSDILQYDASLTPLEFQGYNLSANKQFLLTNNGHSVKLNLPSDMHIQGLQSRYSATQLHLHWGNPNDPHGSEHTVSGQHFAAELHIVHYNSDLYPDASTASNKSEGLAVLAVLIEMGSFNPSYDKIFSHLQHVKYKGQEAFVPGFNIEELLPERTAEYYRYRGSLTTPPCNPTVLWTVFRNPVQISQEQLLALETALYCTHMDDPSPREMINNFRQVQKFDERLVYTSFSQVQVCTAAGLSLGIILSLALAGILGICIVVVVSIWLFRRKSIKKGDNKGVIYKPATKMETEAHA
One number for each entry, as −log10 of the molar value.

Compound	pKi
COc1c2occc2cc2ccc(=O)oc12 [Compound 2, xanthotoxin]	6.06
C/C(=C\COc1c2occc2cc2ccc(=O)oc12)CO [Compound 4, E-trichoclin]	6.26

*Q* Entry CC(C)=CCOc1c2occc2cc2ccc(=O)oc12 [Compound 6, imperatorin] has what pKi?
*A* 6.08

###

target: hCA II (Homo sapiens, UniProt P00918); construct: made in house; type: biochemical
Property measured: Ki

*Q* Entry `CC1(C)O[C@@H]1COc1c2occc2cc2ccc(=O)oc12` has what Ki?
*A* > 10 µM

###

tested on: HeLa cells; assay: MTT cytotoxic assay in cancer HeLa cells; assay type: cell-based; details: Homo sapiens, HeLa, 48 h, read-out: IC50 (concentration of compound that reduces the cell viability to 50%)
For each entry below, report its pIC50 value.
One number for each entry, as −log10 of the molar value.

Molecule	Property measured	Assay result
COc1ccc2ccc(=O)oc2c1CC=C(C)C [Compound 12, osthol]	pIC50	4.01

API: the following record is the query input.
*Q* # value lookup — system HeLa cells, readout pIC50, item CC(C)=CCC/C(C)=C/CC/C(C)=C/COc1ccc2ccc(=O)oc2c1 [Compound 15, umbelliprenin]
*A* 4.12

###

target: hCA IX (Homo sapiens, UniProt Q16790)
Property measured: pKi
Numbers only, as −log10 of the molar value.

Solved cases below.
COc1c2ccoc2c(OC/C=C(\C)CO)c2oc(=O)ccc12 5.82
COc1ccc2ccc(=O)oc2c1C[C@@H]1OC1(C)C 5.72
CC(C)=CCC/C(C)=C/CC/C(C)=C/COc1ccc2ccc(=O)oc2c1 6.57

API: the following record is the query input.
*Q* Entry `COc1ccc2ccc(=O)oc2c1CC=C(C)C` has what pKi?
*A* 5.61
